assay: AUC (0 to t) in Sprague-Dawley rat at 5 mg/kg, iv measured upto 48 hrs by LC-MS/MS analysis; type: ADME, organism-based; details: in vivo
quantity_kind: AUC(0-t) at 48 h (ng·h/mL)

| smiles | observed_value |
| --- | --- |
| O=C(Nc1ccc(Oc2ccnc(NC(=O)N3CC(O)C3)c2)c(F)c1)c1cn(-c2cccnc2)nn1 | 59300 |

###

target: Macrophage colony-stimulating factor 1 receptor (Homo sapiens, UniProt P07333)
Sequence (P07333 whole entry): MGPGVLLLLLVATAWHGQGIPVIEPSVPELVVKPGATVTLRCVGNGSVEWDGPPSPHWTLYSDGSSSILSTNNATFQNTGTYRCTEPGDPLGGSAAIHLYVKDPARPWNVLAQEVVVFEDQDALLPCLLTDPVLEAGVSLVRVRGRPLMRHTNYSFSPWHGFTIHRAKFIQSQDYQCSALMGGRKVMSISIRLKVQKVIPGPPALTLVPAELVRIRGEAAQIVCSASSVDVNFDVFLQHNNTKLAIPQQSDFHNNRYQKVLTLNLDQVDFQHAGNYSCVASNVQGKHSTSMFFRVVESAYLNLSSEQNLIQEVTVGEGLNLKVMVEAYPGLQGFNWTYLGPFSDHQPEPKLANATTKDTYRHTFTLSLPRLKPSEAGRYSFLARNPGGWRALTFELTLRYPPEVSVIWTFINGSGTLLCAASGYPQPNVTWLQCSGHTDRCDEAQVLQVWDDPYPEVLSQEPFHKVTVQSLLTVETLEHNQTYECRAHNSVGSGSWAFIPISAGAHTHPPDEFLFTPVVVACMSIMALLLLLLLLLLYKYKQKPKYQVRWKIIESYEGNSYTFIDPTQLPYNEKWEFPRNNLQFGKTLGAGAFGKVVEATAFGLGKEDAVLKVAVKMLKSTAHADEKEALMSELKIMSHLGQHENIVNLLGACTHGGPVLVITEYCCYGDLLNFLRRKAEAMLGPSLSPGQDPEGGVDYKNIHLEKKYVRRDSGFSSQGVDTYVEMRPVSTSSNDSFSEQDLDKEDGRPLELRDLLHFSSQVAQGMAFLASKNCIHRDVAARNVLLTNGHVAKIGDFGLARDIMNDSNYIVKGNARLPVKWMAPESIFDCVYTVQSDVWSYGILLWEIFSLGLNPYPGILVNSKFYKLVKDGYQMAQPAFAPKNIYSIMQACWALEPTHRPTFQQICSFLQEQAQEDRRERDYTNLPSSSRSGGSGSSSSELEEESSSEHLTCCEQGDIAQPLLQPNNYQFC
pIC50: −log10 of the molar value.

| smiles | pIC50 |
| --- | --- |
| O=C(Nc1ccc(Oc2ccnc(NC(=O)N3CC(O)C3)c2)c(F)c1)c1cn(-c2cccnc2)nn1 | 6.88 |
